Numbers sourced from ChEMBL document CHEMBL3351336.

target: Angiotensin-converting enzyme (Oryctolagus cuniculus); experiment: Inhibition of rabbit lung ACE using hippuryl-histidyl-leucine as substrate assessed as release of hippuric acid incubated for 10 mins prior to substrate addition measured after 30 mins by spectrophotometry
Active and inactive are the calls of the source. The rule behind the calls is not given here.
Classes used: active, inactive

1) CCOC(=O)C1=C(C)NC(C)=C(C(=O)OCC)C1c1cc(Br)cc(Br)c1OCc1cn(CC(=O)NCc2ccc(OC(F)(F)F)cc2)nn1 ... inactive
2) CCOC(=O)C1=C(C)NC(C)=C(C(=O)OCC)C1c1cccc(OC)c1OCC#CCN1CCCC1 ... inactive
3) CCOC(=O)C1=C(C)NC(C)=C(C(=O)OCC)C1c1cccc(OC)c1OCC#CCN1CCN(C)CC1 ... inactive
4) CCOC(=O)C1=C(C)NC(C)=C(C(=O)OCC)C1c1cccc(OC)c1OCC#CCN1CCC(C(=O)OCC)CC1 ... inactive
5) CCOC(=O)C1=C(C)NC(C)=C(C(=O)OCC)C1c1cccc(OC)c1OCC#CCN1CCN(c2ccccc2)CC1 ... inactive
6) CCOC(=O)C1=C(C)NC(C)=C(C(=O)OCC)C1c1cccc(OC)c1OCC#CCN1CCOCC1 ... inactive
7) CCOC(=O)C1=C(C)NC(C)=C(C(=O)OCC)C1c1cccc(OC)c1OCc1cn(CC(=O)Nc2nnc(C(F)(F)F)s2)nn1 ... active
8) CCOC(=O)C1=C(C)NC(C)=C(C(=O)OCC)C1c1cc(Br)cc(Br)c1OCc1cn(CC(=O)Nc2ccc(SC(F)(F)F)cc2)nn1 ... inactive
9) CCOC(=O)C1=C(C)NC(C)=C(C(=O)OCC)C1c1cc(Br)cc(Br)c1OCc1cn(CC(=O)NCCC(=O)O)nn1 ... inactive
10) CCOC(=O)C1=C(C)NC(C)=C(C(=O)OCC)C1c1cccc(OC)c1OCc1cn(CC(=O)Nc2nc3ccc(F)cc3s2)nn1 ... active
11) CCOC(=O)C1=C(C)NC(C)=C(C(=O)OCC)C1c1cc(Br)cc(Br)c1OCC#CCN1CCN(C)CC1 ... inactive
12) CCOC(=O)C1=C(C)NC(C)=C(C(=O)OCC)C1c1cc(Br)cc(Br)c1OCc1cn(CC(=O)Nc2cccc(C(=O)O)c2)nn1 ... inactive
13) CCOC(=O)C1=C(C)NC(C)=C(C(=O)OCC)C1c1cccc(OC)c1OCc1cn(CCC(F)(F)C(F)(F)C(F)(F)C(F)(F)C(F)(F)C(F)(F)C(F)(F)C(F)(F)F)nn1 ... active
14) CCOC(=O)C1=C(C)NC(C)=C(C(=O)OCC)C1c1cc(Br)cc(Br)c1OCC#CCN1CCN(c2ccc(F)cc2)CC1 ... inactive
15) CCOC(=O)C1=C(C)NC(C)=C(C(=O)OCC)C1c1cc(Br)ccc1OCC#CCN1CCOCC1 ... inactive

* * *

tested on: A549; test: Cytotoxicity against human A549 cells after 24 hrs by MTT assay; assay type: cell-based; details: A549, 24 h
quantity: IC50

1. CCOC(=O)C1=C(C)NC(C)=C(C(=O)OCC)C1c1cc(Br)cc(Br)c1OCC#CCN1CCN(CCO)CC1 ... > 1 mM
2. CCOC(=O)C1=C(C)NC(C)=C(C(=O)OCC)C1c1cccc(OC)c1OCc1cn(CCC(F)(F)C(F)(F)C(F)(F)C(F)(F)C(F)(F)C(F)(F)C(F)(F)C(F)(F)F)nn1 ... > 1 mM
3. CCOC(=O)C1=C(C)NC(C)=C(C(=O)OCC)C1c1cccc(OC)c1OCc1cn(CC(=O)Nc2nc3ccc(F)cc3s2)nn1 ... > 1 mM
4. COc1cccc2c1C(=O)c1c(O)c3c(c(O)c1C2=O)C[C@@](O)(C(=O)CO)C[C@@H]3O[C@H]1C[C@H](N)[C@H](O)[C@H](C)O1 [DOXORUBICIN] ... 0.0026 mM
5. CCOC(=O)C1=C(C)NC(C)=C(C(=O)OCC)C1c1cccc(OC)c1OCc1cn(CC(=O)Nc2nnc(C(F)(F)F)s2)nn1 ... > 1 mM
